Target: panel of 255 wild-type kinases (Homo sapiens)
Sequence (P78368 whole entry): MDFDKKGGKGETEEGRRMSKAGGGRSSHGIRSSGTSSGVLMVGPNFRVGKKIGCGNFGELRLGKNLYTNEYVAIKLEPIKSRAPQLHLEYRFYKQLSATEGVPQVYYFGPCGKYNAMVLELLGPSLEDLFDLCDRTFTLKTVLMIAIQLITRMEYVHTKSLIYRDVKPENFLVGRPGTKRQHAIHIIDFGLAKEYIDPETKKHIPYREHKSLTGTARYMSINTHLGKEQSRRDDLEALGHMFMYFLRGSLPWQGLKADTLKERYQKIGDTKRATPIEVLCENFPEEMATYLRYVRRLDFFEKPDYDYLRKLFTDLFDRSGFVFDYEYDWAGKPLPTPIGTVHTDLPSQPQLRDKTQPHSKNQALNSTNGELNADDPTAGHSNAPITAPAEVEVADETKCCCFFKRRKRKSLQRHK
Assay: Kinase panel profiling at 1 µmol/L (MSA or IMAP), percentage inhibition
Assay type: biochemical
Conditions: kinase CK1γ2; 1 µmol/L single concentration; read-out: %-inhibition at 1 µmol/L, CK1γ2
Kindly state inhibition at 1 µM for each of the entries shown.
I only need the number, in %, no unit after it.

Need inhibition at 1 µM, item "CCN1CCN(c2ccc(Nc3cc(N(C)C(=O)Nc4c(Cl)c(OC)cc(OC)c4Cl)ncn3)cc2)CC1"
-12

What do you have for "Cc1cc(Nc2ncnc3ccc(NC4=NC(C)(C)CO4)cc23)ccc1Oc1ccn2ncnc2c1" ?
-4

# iterate: "COc1ccc(CN2C3CC2CN(c2ccc(-c4cc(OCC(C)(C)O)cn5ncc(C#N)c45)cn2)C3)cn1"
-2.46

Queued: "CN1CCN(c2ccc(C(=O)Nc3n[nH]c4ccc(Cc5cc(F)cc(F)c5)cc34)c(NC3CCOCC3)c2)CC1"
0.857

Could you do the same for "CO[C@]1(C(=O)N[C@@H](C)c2ccc(-n3cc(F)cn3)nc2)CC[C@H](c2nc(C)cc(Nc3cc(C)[nH]n3)n2)CC1" , please?
-13

Another molecule to check: "C[C@H]1Oc2cc(cnc2N)-c2c(nn(C)c2C#N)CN(C)C(=O)c2ccc(F)cc21"
2.14

# iterate: "COC(=O)N[C@@H](C)CNc1nccc(-c2cn(C(C)C)nc2-c2cc(Cl)cc(NS(C)(=O)=O)c2F)n1"
31

Just for reference, paper PMC9516332 is where these values come from.
